# credit: the supplement of paper PMC10567573

B1: TIA1 (parent)
chain: TYECRCIGEEKEMWNFGEKYARF

- Variants of: B1
- run.description: protein stability index of a GFP-peptide fusion (GPS, HEK-293T) (PSI 1-6); higher = more stable;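 further: lentivirally expressed fusions sorted by FACS into six bins by GFP to DsRed ratio, PSI derived from sequencing read proportions per bin multiplied by bin number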
- condition.parameters: c terminus: native
experimental.readout: protein stability index
// no unit string in output, number only

Previously resolved entries follow.
Give recorded protein stability index. E10N 1.83

Return value of protein stability index for input F23G , no commentary. 2.11

Indicate the recorded protein stability index value for this variant: K11S 1.98

Quickly give me recorded protein stability index for K19P 3.04

# return recorded protein stability index for input E12S 2.21

Specify measured protein stability index for Y20N . 2.26

Complete the entry with protein stability index for W14S 2.98

Specify protein stability index for A21F and stop. 2.02

---
Answer with the recorded protein stability index for the variant listed here: G17L 2.35

Give protein stability index for G8F 2.01

Return protein stability index for the following variant: Y20K 3.52
